# Tested on: A549 NSCLC
# PROTOCOL_SUMMARY: NCI tumour cell line growth inhibition, 48 h
OBSERVED_PROPERTY: TGI

Here's what some known entries look like.
# SMILES_STRUCTURE, RESULT_VALUE
data = [
    ("Cc1ccc2c(n1)C(=O)C(Cl)=C(Nc1cccc(C(F)(F)F)c1)C2=O", "50 µM"),
    ("Oc1cccc2ccc(-c3nnc(SCc4ccc(O)c5ncccc45)o3)nc12", "> 100 µM"),
    ("CCN(CC)c1ccc(/C=N/NC(=O)c2ccc(NS(C)(=O)=O)cc2)cc1", "> 100 µM"),
]

Next:
(Q) Form field: reported TGI of N#Cc1c(NC(=O)c2ccc(F)c(Cl)c2)sc2c1CCC(=O)C2
(A) > 29.2 µM
